- Tested on: OVCAR-5
- method.notes: NCI tumour cell line growth inhibition, 48 h
Active and inactive are the calls of the source. Cut-off read from the data, not from the text of the source: active = GI50 up to about 1.1 µM and inactive = higher.
measured.quantity: GI50

- Cc1ccccc1C1OC(=O)c2ccccc21 (configuration not stated): > 100 µM (inactive)
- O=C(c1cccs1)N(C(=S)N1CCN(c2ccccn2)CC1)c1ccccc1: > 100 µM (inactive)
- COc1cccc(CCNc2c(C#N)c3n(c4ccccc4[n+]3C)c3ncccc23)c1: 15.3 µM (inactive)
- O=C1C=C(c2[nH]c3ccccc3c2C2=CC(=O)c3ccccc3C2=O)C(=O)c2ccccc21: > 100 µM (inactive)
- CC(=O)CCN1CC2CN=NC2(C#N)C1 (configuration not stated): > 100 µM (inactive)
- O=c1[nH]nc(Cc2ccc(Cl)cc2)n1/N=C/c1ccc([N+](=O)[O-])o1: 6.85 µM (inactive)
- O=C1Cc2cn[nH]c2-c2ccccc2N1: 30.3 µM (inactive)
- O=C1c2ccccc2C(=O)N1/N=C1/SC(=N\c2ccccc2)/C(=N/c2ccccc2)N1c1ccccc1: > 100 µM (inactive)
- COc1ccc(COCC[C@H](C)OC2OC(CO[Si](C)(C)C(C)(C)C)C(OC(=O)CCCN=[N+]=[N-])C(OC(=O)CCCN=[N+]=[N-])C2OC(=O)CCCN=[N+]=[N-])cc1 (some centres not stated): 89.1 µM (inactive)
- O=c1c2nc[nH]c2n(-c2ccccc2)c(=S)n1-c1ccccc1: > 100 µM (inactive)
- COc1ccc(C(=CCC(C)C2CCC3[C@@H]4C(OC(C)=O)CC5CC(OC(C)=O)CC[C@]5(C)C4CC(OC(C)=O)[C@]23C)c2ccc(OC)cc2)cc1 (some centres not stated): 72.8 µM (inactive)
- CC1CN=C(N(C(=O)Nc2ccccc2)C2CCCCC2)S1 (configuration not stated): 14.7 µM (inactive)
- Cc1nnc2n1-c1ccccc1C(=S)N1CSCC21 (configuration not stated): > 100 µM (inactive)
- COC(=O)C1=C(C(=O)OC)C(C(=O)OC)C(C(=O)OC)C(C(=O)OC)(C(=O)OC)C(C(=O)OC)=C1C(=O)OC (configuration not stated): 19.3 µM (inactive)
- C/C(=C\c1csc(C)n1)[C@@H]1C[C@@H]2O[C@]2(C)CCC[C@H](C)[C@H](O)[C@@H](C)C(=O)C(C)(C)[C@@H](O)CC(=O)O1: < 0.0001 µM (active)
- COc1cc2c([C@@H](OC(=O)c3ccccc3)c3ccc4c(c3)OCO4)nccc2c(OC)c1OC: 76.9 µM (inactive)
- FC(F)(F)c1ccc(Cc2nc3cc4ccccc4cc3[nH]2)cc1: > 100 µM (inactive)

====

- System: NCI-H460
- method.notes: NCI tumour cell line growth inhibition, 48 h
The source made the active and inactive calls. Rule as the data show it: active = GI50 up to about 1.1 µM and inactive = higher.
measured.quantity: GI50

- COc1c(O)ccc(/C=N/NC(=S)NCOCCOC(C)=O)c1OC: > 100 µM (inactive)
- O=C1C(Cl)=C(N2CCN(CCOCCO)CC2)C(=O)c2c(O)ccc(O)c21: 3.08 µM (inactive)
- O=C(NC(CCCCN1C(=O)c2ccccc2C1=O)P(=O)(Oc1ccccc1)Oc1ccccc1)OCc1ccccc1 (stereo not drawn): > 100 µM (inactive)
- O=C1[C@H](O)[C@@H]2C(O)O[C@H]3[C@@H]2N1C[C@H]3[Si](c1ccccc1)(c1ccccc1)c1ccccc1 (stereo partly drawn): > 100 µM (inactive)
- COc1ccc(N2C(=O)C3CC(c4ccc(C)cc4)c4c([nH]c5ccccc45)C3C2=O)cc1 (stereo not drawn): 4.9 µM (inactive)
- C=CC(Br)(CBr)CCC1OC1(C)C (stereo not drawn): 14.2 µM (inactive)
- COC(=O)C(C/C=C(\C)c1ccc(Cl)cc1)C(C)=O (stereo not drawn): > 100 µM (inactive)
- O=C(N/C(=C\c1cc(Cl)ccc1Cl)c1nc2cc(Cl)ccc2[nH]1)c1ccccc1: 15.1 µM (inactive)
